test system: RPMI-8226 leukemia; test: NCI tumour cell line growth inhibition, 384-well format
Task for the reader: assign each of the following compounds its reported GI50.

q: Answer with reported GI50 of S=c1nc[nH]c2nc[nH]c12
a: 289 nM

q: Answer with reported GI50 of Cc1cc(C(=O)N[C@@H](CCC(=O)O)C(=O)O)sc1CC[C@@H]1CNc2nc(N)[nH]c(=O)c2C1
a: 18.2 nM

q: Answer with reported GI50 of Cc1cc(Nc2cc(CN3CCOCC3)c3nc(C)c(Cc4ccc(Cl)cc4F)n3n2)n[nH]1
a: 205 nM

q: Answer with reported GI50 of COc1ccc(-c2ccc3ncc4c(c3c2)n(-c2ccc(N3CCNCC3)c(C(F)(F)F)c2)c(=O)n4C)cn1
a: < 10 nM
